Target: vitronectin receptor αvβ3 (Homo sapiens, UniProt P05106+P06756)
Construct: Human placenta is stored at -80° C. immediately after its excision
Sequence (P06756 31-889 limits assumed): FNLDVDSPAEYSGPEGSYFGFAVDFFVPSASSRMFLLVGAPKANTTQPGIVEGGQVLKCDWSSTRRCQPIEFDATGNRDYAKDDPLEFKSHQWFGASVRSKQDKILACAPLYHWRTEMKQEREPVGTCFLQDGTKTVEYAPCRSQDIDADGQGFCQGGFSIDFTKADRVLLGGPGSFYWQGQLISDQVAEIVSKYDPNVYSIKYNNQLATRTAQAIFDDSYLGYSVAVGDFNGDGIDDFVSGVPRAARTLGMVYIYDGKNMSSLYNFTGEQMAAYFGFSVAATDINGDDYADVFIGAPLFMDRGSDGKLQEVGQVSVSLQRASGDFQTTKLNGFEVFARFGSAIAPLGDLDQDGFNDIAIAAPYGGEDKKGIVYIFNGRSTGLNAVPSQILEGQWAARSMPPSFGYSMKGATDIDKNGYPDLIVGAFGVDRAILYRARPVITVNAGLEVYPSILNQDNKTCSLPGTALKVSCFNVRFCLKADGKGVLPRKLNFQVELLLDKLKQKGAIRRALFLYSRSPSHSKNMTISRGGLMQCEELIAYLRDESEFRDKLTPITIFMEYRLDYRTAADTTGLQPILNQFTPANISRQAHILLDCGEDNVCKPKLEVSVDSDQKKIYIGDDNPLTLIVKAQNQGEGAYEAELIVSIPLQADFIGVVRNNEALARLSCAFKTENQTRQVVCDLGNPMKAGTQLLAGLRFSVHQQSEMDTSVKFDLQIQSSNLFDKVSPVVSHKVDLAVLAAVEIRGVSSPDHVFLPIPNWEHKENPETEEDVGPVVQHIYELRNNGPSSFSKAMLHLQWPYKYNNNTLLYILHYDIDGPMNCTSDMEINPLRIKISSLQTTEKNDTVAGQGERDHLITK
Sequence (P06756 891-1048 limits assumed): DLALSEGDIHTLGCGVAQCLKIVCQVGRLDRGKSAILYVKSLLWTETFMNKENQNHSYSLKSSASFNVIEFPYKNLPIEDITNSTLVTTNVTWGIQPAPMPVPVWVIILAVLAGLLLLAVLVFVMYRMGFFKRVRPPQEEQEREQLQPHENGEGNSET
Sequence (P05106 27-788): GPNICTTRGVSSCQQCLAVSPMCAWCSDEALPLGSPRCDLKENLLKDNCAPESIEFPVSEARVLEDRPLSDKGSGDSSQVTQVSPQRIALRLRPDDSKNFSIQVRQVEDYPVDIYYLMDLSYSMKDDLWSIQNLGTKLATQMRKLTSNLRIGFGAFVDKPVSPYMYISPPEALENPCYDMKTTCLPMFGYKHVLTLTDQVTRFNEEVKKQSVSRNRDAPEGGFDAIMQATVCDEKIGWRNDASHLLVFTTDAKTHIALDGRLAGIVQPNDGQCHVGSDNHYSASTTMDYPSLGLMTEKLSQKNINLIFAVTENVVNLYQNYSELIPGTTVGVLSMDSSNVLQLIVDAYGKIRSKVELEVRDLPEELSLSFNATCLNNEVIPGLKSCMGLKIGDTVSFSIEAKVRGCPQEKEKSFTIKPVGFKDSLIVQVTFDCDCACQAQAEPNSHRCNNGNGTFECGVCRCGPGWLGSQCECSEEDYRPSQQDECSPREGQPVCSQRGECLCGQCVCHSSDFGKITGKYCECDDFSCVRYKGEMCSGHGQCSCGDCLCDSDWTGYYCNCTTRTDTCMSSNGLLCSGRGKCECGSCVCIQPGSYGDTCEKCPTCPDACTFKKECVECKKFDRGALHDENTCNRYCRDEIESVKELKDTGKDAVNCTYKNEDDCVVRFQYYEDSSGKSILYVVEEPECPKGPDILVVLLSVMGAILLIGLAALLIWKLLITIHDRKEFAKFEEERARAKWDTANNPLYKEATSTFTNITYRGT
Test: inhibition of the binding of fibrinogen to vitronectin receptor αvβ3 (ELISA)
Settings: fibrinogen binding to immobilized αvβ3 from human placenta, pH 7.4, read-out: VNR IC50
readoutKind: IC50 (nM)
Report as a plain number; the unit nM is understood.

Inquiry: Return reported IC50; argument: `COc1cc(NC(=O)c2csc(NC(=O)NCc3ccccc3)n2)ccc1OCC(=O)O`
Reply text: 0.2

Inquiry: Any idea what IC50 was measured for `O=C(O)COc1ccc(NC(=O)c2csc(NC(=O)NCc3ccccc3)n2)cc1C(=O)O` ?
Reply text: 1.3

Inquiry: Can you share its IC50? I mean this compound: `O=C(O)COc1ccc(NC(=O)c2csc(NC(=O)NCc3ccccc3)n2)cc1`
Reply text: 1
